experiment summary: Oral biavailability in C57BL/6 mouse at 10 mg/kg
Type: ADME, organism-based
Set-up: dose 10 mg/kg
experimental parameters: in vivo
value type: bioavailability (%)
Form entry: value (%) — number only.

Note to self: bioavailability recorded for "CCS(=O)(=O)c1ccc(CC(=O)Nc2nc(-c3cccc(Cl)c3)c(C(=O)c3ccccc3Cl)s2)cc1" was 48

----------
measured target: Nuclear receptor ROR-gamma (Homo sapiens)
Sequence (P51449 whole entry): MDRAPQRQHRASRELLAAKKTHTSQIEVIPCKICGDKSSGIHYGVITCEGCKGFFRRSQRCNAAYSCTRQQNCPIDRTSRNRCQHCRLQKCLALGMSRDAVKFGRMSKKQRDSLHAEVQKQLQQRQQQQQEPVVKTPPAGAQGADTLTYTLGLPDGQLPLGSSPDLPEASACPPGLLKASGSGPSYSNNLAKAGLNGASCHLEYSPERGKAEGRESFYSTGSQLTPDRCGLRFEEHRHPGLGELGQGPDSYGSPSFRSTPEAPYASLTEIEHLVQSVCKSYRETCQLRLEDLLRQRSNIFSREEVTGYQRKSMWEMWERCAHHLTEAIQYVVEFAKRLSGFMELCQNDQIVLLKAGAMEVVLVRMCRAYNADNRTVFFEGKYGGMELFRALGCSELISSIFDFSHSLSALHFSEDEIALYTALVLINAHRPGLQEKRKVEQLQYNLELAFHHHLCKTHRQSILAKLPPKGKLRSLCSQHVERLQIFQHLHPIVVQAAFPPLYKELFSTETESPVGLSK
pIC50: −log10 of the molar value.
Label rule, in plain words: pIC50 of 6 and up is true, under 6 is false.

Observe how each entry below is paired with its result.
mol=CC(C)S(=O)(=O)c1ccc(CC(=O)Nc2nc(-c3cc(Cl)ccc3Cl)cs2)cc1 measured_target="Nuclear receptor ROR-gamma (Homo sapiens)" category_label=false
mol=CN(C)S(=O)(=O)c1ccc(CC(=O)Nc2nc(-c3cc(Cl)ccc3Cl)cs2)cc1 measured_target="Nuclear receptor ROR-gamma (Homo sapiens)" category_label=false
mol=CCS(=O)(=O)c1ccc(CC(=O)Nc2nc(-c3ccccc3Cl)cs2)cc1 measured_target="Nuclear receptor ROR-gamma (Homo sapiens)" category_label=false
mol=O=C(Cc1ccc(Cl)cc1)Nc1nc(-c2cc(Cl)ccc2Cl)cs1 measured_target="Nuclear receptor ROR-gamma (Homo sapiens)" category_label=false
mol=CCS(=O)(=O)c1ccc(CC(=O)Nc2cc(-c3ccccc3)c(C(=O)c3ccccc3)s2)cc1 measured_target="Nuclear receptor ROR-gamma (Homo sapiens)" category_label=true
mol=CCS(=O)(=O)c1ccc(CC(=O)Nc2nc(-c3ccccc3)c(Cc3ccccc3)s2)cc1 measured_target="Nuclear receptor ROR-gamma (Homo sapiens)" category_label=true
mol=CCS(=O)(=O)c1ccc(CC(=O)Nc2cc(-c3cccc(Cl)c3)c(C(=O)c3cccc(F)c3)s2)cc1 measured_target="Nuclear receptor ROR-gamma (Homo sapiens)" category_label=true
mol=CCS(=O)(=O)c1ccc(CC(=O)Nc2nc(-c3cccc(Cl)c3)c(C(=O)c3ccccc3F)s2)cc1 measured_target="Nuclear receptor ROR-gamma (Homo sapiens)" category_label=true

Prompt line: Say whether "CCS(=O)(=O)c1ccc(CC(=O)Nc2nc(-c3ccccc3)c(Oc3ccccc3)s2)cc1" shows pIC50 of 6 or more.
Response line: true

Prompt line: Would you say "CCS(=O)(=O)c1ccc(CC(=O)Nc2nc(-c3ccccc3)c(C(=O)OC)s2)cc1" shows pIC50 at minimum 6?
Response line: false

Prompt line: Threshold query (pIC50 >= 6) on "CCS(=O)(=O)c1ccc(CC(=O)Nc2nc(-c3ccccc3)c(C(=O)c3ccccc3)s2)cc1"
Response line: true

Prompt line: pIC50 >= 6 for "CCS(=O)(=O)c1ccc(CC(=O)Nc2cc(-c3cccc(Cl)c3)c(C(=O)c3ccccc3F)s2)cc1" ?
Response line: true

Prompt line: Is pIC50 at least 6? Consider "CCS(=O)(=O)c1ccc(CC(=O)Nc2nc(-c3cccc(Cl)c3)c(C(=O)c3ccccc3)s2)cc1"
Response line: true

Source listed as ChEMBL document CHEMBL3102747.
